The reported numbers originate from paper PMC2818863.

# target-entity: PLAP (Homo sapiens, UniProt P05187)
# Sequence (P05187 23-506 limits assumed): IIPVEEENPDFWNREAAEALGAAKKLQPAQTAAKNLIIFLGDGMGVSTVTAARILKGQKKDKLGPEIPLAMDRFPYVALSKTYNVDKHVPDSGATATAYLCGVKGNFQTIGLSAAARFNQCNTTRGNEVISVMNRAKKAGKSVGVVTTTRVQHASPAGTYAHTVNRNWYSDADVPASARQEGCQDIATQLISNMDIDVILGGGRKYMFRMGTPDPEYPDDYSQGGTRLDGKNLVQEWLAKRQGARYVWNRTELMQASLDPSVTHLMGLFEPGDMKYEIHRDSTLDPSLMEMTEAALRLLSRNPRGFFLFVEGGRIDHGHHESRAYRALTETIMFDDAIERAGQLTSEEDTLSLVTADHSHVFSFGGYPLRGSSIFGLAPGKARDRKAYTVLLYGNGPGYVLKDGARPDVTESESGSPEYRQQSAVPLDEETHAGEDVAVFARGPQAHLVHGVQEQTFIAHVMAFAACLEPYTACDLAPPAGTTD
pIC50: −log10 of the molar value.

>  <molecule>
Cc1cc(C(=O)NCCc2ccc(O)c(O)c2)oc1C [Compound 26]

>  <pIC50>
< 4.00

$$$$
>  <molecule>
Cc1cc(C)nc(SCC(=O)c2cccc(O)c2)n1 [Compound 4]

>  <pIC50>
< 4.00

$$$$
>  <molecule>
Cc1nc(Br)cn1CC(=O)c1ccc(O)c(O)c1 [Compound 19]

>  <pIC50>
5.31

$$$$
>  <molecule>
COc1ccc(-n2nnnc2SCC(=O)c2ccc(O)c(O)c2)cc1 [Compound 32]

>  <pIC50>
5.70

$$$$
>  <molecule>
Cc1cnn(CC(=O)c2ccc(O)c(O)c2)c1 [Compound 10]

>  <pIC50>
5.57

$$$$
>  <molecule>
Cc1cc(C)nc(SCC(=O)c2ccc(O)cc2)n1 [Compound 3]

>  <pIC50>
< 4.00

$$$$
>  <molecule>
Cc1cc(C(=O)NCc2ccc(O)c(O)c2)oc1C [Compound 25]

>  <pIC50>
< 4.00

$$$$
>  <molecule>
O=C(CSc1nnc(-c2ccccc2)[nH]1)c1ccc(O)c(O)c1 [Compound 28]

>  <pIC50>
< 4.00

$$$$
>  <molecule>
CCc1nccn1CC(=O)c1ccc(O)c(O)c1 [Compound 13]

>  <pIC50>
~5.52

$$$$
>  <molecule>
COc1ccc(C(=O)CSc2nc(C)cc(C)n2)cc1 [Compound 7]

>  <pIC50>
< 4.00

$$$$
>  <molecule>
Cc1cc(C)nc(SCC(=O)c2ccc3c(c2)OCO3)n1 [Compound 6]

>  <pIC50>
< 4.00

$$$$
>  <molecule>
O=C(Cn1ccnc1)c1ccc(O)c(O)c1 [Compound 8]

>  <pIC50>
~5.52

$$$$
>  <molecule>
Cn1c(SCC(=O)c2ccccc2)nnc1-c1cccc(N)c1 [Compound 29]

>  <pIC50>
< 4.00

$$$$
>  <molecule>
COc1cc(C(=O)CSc2nc(C)cc(C)n2)ccc1O [Compound 5]

>  <pIC50>
< 4.00

$$$$
>  <molecule>
Cc1nccn1CC(=O)c1ccc(O)c(O)c1 [Compound 12]

>  <pIC50>
5.48

$$$$
